- Test system: Sindbis virus TE/5'2J-GFP;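 note: Interferon-defective BHK-21 derivatives, ZAP line overexpressing the rat ZAP N-terminal zinc finger domain fused to Zeocin resistance, GFP scored within live singlet TagRFP+ cells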
- protocol: percent infected (GFP+ in RFP+ ISG-expressing cells); higher = more infection (less antiviral activity)
- condition-description: experiment: confirmatory screen 1; BHK/HA-Zeo (control)
Assign percent infected to each entry below.
Answers are plain numbers, in %.

Some entries whose results are on file:
{"residue-codes": "MKEDCLPSSHVPISDSKSIQKSELLGLLKTYNCYHEGKSFQLRHREEEGTLIIEGLLNIAWGLRRPIRLQMQDDREQVHLPSTSWMPRRPSCPLKEPSPQNGNITAQGPSIQPVHKAESSTDSSGPLEEAEEAPQLMRTKSDASCMSQRRPKCRAPGEAQRIRRHRFSINGHFYNHKTSVFTPAYGSVTNVRVNSTMTTLQVLTLLLNKFRVEDGPSEFALYIVHESGERTKLKDCEYPLISRILHGPCEKIARIFLMEADLGVEVPHEVAQYIKFEMPVLDSFVEKLKEEEEREIIKLTMKFQALRLTMLQRLEQLVEAK [RASSF4]", "reported-property": "percent infected", "endpoint-result": 80.1}
{"residue-codes": "MHQSLTQQRSSDMSLPDSMGAFNRRKRNSIYVTVTLLIVSVLILTVGLAATTRTQNVTVGGYYPGVILGFGSFLGIIGSNLIENKRQMLVASIVFISFGVIAAFCCAIVDGVFAARHIDLKPLYANRCHYVPKTSQKEAEEVISSSTKNSPSTRVMRNLTQAAREVNCPHLSREFCTPRIRGNTCFCCDLYNCGNRVEITGGYYEYIDVSSCQDIIHLYHLLWSATILNIVGLFLGIITAAVLGGFKDMNPTLPALNCSVENTHPTVSYYAHPQVASYNTYYHSPPHLPPYSAYDFQHSGVFPSSPPSGLSDEPQSASPSPSYMWSSSAPPRYSPPYYPPFEKPPPYSP [FAM70A]", "reported-property": "percent infected", "endpoint-result": 97}
{"residue-codes": "MAQASPPRPERVLGASSPEARPAQEALLLPTGVFQVAEKMEKRTCALCPKDVEYNVLYFAQSENIAAHENCLLYSSGLVECEDQDPLNPDRSFDVESVKKEIQRGRKLKCKFCHKRGATVGCDLKNCNKNYHFFCAKKDDAVPQSDGVRGIYKLLCQQHAQFPIIAQSAKFSGVKRKRGRKKPLSGNHVQPPETMKCNTFIRQVKEEHGRHTDATVKVPFLKKCKEAGLLNYLLEEILDKVHSIPEKLMDETTSESDYEEIGSALFDCRLFEDTFVNFQAAIEKKIHASQQRWQQLKEEIELLQDLKQTLCSFQENRDLMSSSTSISSLSY [PHF11]", "reported-property": "percent infected", "endpoint-result": 76.3}
{"residue-codes": "MKKSGVLFLLGIILLVLIGVQGTPVVRKGRCSCISTNQGTIHLQSLKDLKQFAPSPSCEKIEIIATLKNGVQTCLNPDSADVKELIKKWEKQVSQKKKQKNGKKHQKKKVLKVRKSQRSRQKKTT [CXCL9]", "reported-property": "percent infected", "endpoint-result": 61.9}
{"residue-codes": "MPVERMRMRPWLEEQINSNTIPGLKWLNKEKKIFQIPWMHAARHGWDVEKDAPLFRNWAIHTGKHQPGVDKPDPKTWKANFRCAMNSLPDIEEVKDKSIKKGNNAFRVYRMLPLSERPSKKGKKPKTEKEDKVKHIKQEPVESSLGLSNGVSDLSPEYAVLTSTIKNEVDSTVNIIVVGQSHLDSNIENQEIVTNPPDICQVVEVTTESDEQPVSMSELYPLQISPVSSYAESETTDSVPSDEESAEGRPHWRKRNIEGKQYLSNMGTRGSYLLPGMASFVTSNKPDLQVTIKEESNPVPYNSSWPPFQDLPLSSSMTPASSSSRPDRETRASVIKKTSDITQARVKSC [IRF2]", "reported-property": "percent infected", "endpoint-result": 81}

Go through the list and state percent infected for each entry.
1. MALLLALSLLVLWTSPAPTLSGTNDAEDCCLSVTQKPIPGYIVRNFHYLLIKDGCRVPAVVFTTLRGRQLCAPPDQPWVERIIQRLQRTSAKMKRRSS [CCL19]
2. MRSARSTALNRGEQRAVRYYSHMKLNMAEEEDYMSDSFINVQEDIRPGLPMLRQIREARRKEEKQQEANLKNRQKSLKEEEQERRDIGLKNALGCENKGFALLQKMGYKSGQALGKSGGGIVEPIPLNIKTGKSGIGHEASLKRKAEEKLESYRKKIHMKNQAEEKAAEQFRMRLKNKQDEMKLEGDLRRSQRACQQLDVQKNIQVPREAWYWLRLEEETEEDEEEKEQDEDEYKSEDLSVLEKLQILTSYLREEHLYCIWCGTAYEDKEDLSSNCPGPTSADHD [CCDC75]
3. MSSENCFVAENSSLHPESGQENDATSPHFSTRHEGSFQVPVLCAVMNVVFITILIIALIALSVGQYNCPGQYTFSMPSDSHVSSCSEDWVGYQRKCYFISTVKRSWTSAQNACSEHGATLAVIDSEKDMNFLKRYAGREEHWVGLKKEPGHPWKWSNGKEFNNWFNVTGSDKCVFLKNTEVSSMECEKNLYWICNKPYK [CD69]
4. MNTRNRVVNSGLGASPASRPTRDPQDPSGRQGELSPVEDQREGLEAAPKGPSRESVVHAGQRRTSAYTLIAPNINRRNEIQRIAEQELANLEKWKEQNRAKPVHLVPRRLGGSQSETEVRQKQQLQLMQSKYKQKLKREESVRIKKEAEEAELQKMKAIQREKSNKLEEKKRLQENLRREAFREHQQYKTAEFLSKLNTESPDRSACQSAVCGPQSSTWKLPILPRDHSWARSWAYRDSLKAEENRKLQKMKDEQHQKSELLELKRQQQEQERAKIHQTEHRRVNNAFLDRLQGKSQPGGLEQSGGCWNMNSGNSWGI [EPSTI1]
5. MRTSYLLLFTLCLLLSEMASGGNFLTGLGHRSDHYNCVSSGGQCLYSACPIFTKIQGTCYRGKAKCCK [DEFB1]

RESULT:
1. 95.7
2. 93.8
3. 95.9
4. 96.8
5. 97.1

percent infected measured on MLRAGAPTGDLPRAGEVHTGTTIMAVEFDGGVVMGSDSRVSAGEAVVNRVFDKLSPLHERIYCALSGSAADAQAVADMAAYQLELHGIELEEPPLVLAAANVVRNISYKYREDLSAHLMVAGWDQREGGQVYGTLGGMLTRQPFAIGGSGSTFIYGYVDAAYKPGMSPEECRRFTTDAIALAMSRDGSSGGVIYLVTITAAGVDHRVILGNELPKFYDE [PSMB9] = 80
